Reference for the values: ChEMBL document CHEMBL3507680

# Procedure Text: Human HepG2 cell viability assay in 384 well format
# Type: toxicity, cell-based
# Set-up: dose 125 nL, time 70.5 hour; concentration not given beside the values
# Recorded Conditions: HepG2 cells, read-out: Inhibition
As shown below, each of these molecules has a reported cytotoxicity at 70.5 h value.
Quantity: cytotoxicity at 70.5 h (%)

>>> value_observed("COCCNc1cc(-c2cccc(C(=O)O)c2C)c2cc[nH]c2n1")
-11.2
>>> value_observed("COc1cccc(Cn2ncnc2CCSC)c1")
-12.2
>>> value_observed("O=C(c1cn(CC(=O)N2CCCC2)c2ccccc12)C1CC1")
-2.27
>>> value_observed("O=C(NCc1csc2ccc(Cl)cc12)c1cc2n(n1)CCNC2")
3.64
>>> value_observed("COc1ccc(Cl)cc1NCC(=O)NCCNc1cnccn1")
-10.9
>>> value_observed("COCCC1COC2(CCN(C(=O)c3ccccc3)CC2)C1 (stereo not drawn)")
-7.59
>>> value_observed("O=C(NCCN1CCOCC1)c1cc(-c2ccc3c(c2)CCO3)n[nH]1")
2
>>> value_observed("CC(C)[C@@H]1CN(Cc2ccccn2)C[C@H]1NS(=O)(=O)N(C)C")
-0.239
>>> value_observed("CC(=O)N1CCCC2(CCN(C(=O)c3nccnc3N)CC2)C1")
26.1
>>> value_observed("Cc1cc(CC(=O)N2CCN(C)[C@@H]3CS(=O)(=O)C[C@@H]32)ccc1F")
-4.31
>>> value_observed("O=C(O)[C@@H]1OCC(=O)N(Cc2cccc(Cl)c2)[C@@H]1c1ccccc1")
5.58
>>> value_observed("CCc1ccc(C(=O)O)cc1S(=O)(=O)Nc1c(C)ccn(C)c1=O")
-9.15
>>> value_observed("Cc1ccccc1C(=O)NC[C@@H]1CCN(C(=O)c2cscn2)C[C@H]1O")
18.9
>>> value_observed("Cc1nc(CN2CCC(c3nc4cc(Cl)ccc4o3)CC2)oc1C")
-19.4
>>> value_observed("Cc1cc(C2CCCN(C(=O)c3ccc(Cl)o3)C2)n[nH]1 (stereo not drawn)")
-8.12
>>> value_observed("Cc1ccccc1C(=O)NCc1ccc(N2CCNC(=O)C2)cc1")
-10.2
>>> value_observed("Cc1cc(C)n(NC(=O)c2ccc(Cl)cc2Cl)c(=O)c1")
-16.4
>>> value_observed("CC(=O)Nc1c(C)noc1/C=C\\c1ccc(C)c(S(=O)(=O)NC2CC2)c1")
-6.84
>>> value_observed("COc1ncccc1NC(=O)C1CCN(S(C)(=O)=O)CC1")
-9.19
>>> value_observed("CCc1ccc(C(=O)N(c2cccnc2)C(C)C)cc1S(C)(=O)=O")
-8
>>> value_observed("Cc1c(Cl)cccc1S(=O)(=O)NCC(O)c1cccn1C (stereo not drawn)")
-3.24
>>> value_observed("O=C(CN1C=Nc2ccccc2S1(=O)=O)NCc1ccccc1")
-9.5
>>> value_observed("CC1CCCN(S(=O)(=O)NCc2ccccc2Cn2cncn2)C1 (stereo not drawn)")
-10.6

----------
Items are presented alongside their recorded cytotoxicity at 70.5 h.
# Procedure Text: Human HepG2 cell viability assay in 384 well format
# Format: toxicity, cell-based
# Set-up: dose 125 nL, time 70.5 hour; concentration not given beside the values
# Recorded Conditions: HepG2 cells, read-out: Inhibition
Quantity: cytotoxicity at 70.5 h (%)

>>> value_observed("Cn1ccnc1C(=O)N[C@@H]1CN(CC2CCOCC2)[C@@H]2CCCO[C@@H]21")
-2.65
>>> value_observed("CC(C)NC(=O)N1CCC2(CC1)CN(C(=O)NC(C)C)CCO2")
-10.3
>>> value_observed("CC1CCN(c2ccc(CNC(=O)NCCn3ccnc3)cn2)CC1")
-0.689
>>> value_observed("Cc1c(F)cccc1S(=O)(=O)NCC(C)(C)CC(C)O (stereo unspecified)")
-5.55
>>> value_observed("Cc1oc(-c2nc(C#N)c(NC(C)C)o2)cc1S(=O)(=O)N1CCCC1")
-25.3
>>> value_observed("Cc1cnn(C2CCCN(C(=O)c3cccc(-n4cnnn4)c3)C2)c1 (stereo unspecified)")
-3.6
>>> value_observed("O=C1CC(c2cccnc2)C2(CCN(S(=O)(=O)C3CC3)CC2)N1 (stereo unspecified)")
-3.38
>>> value_observed("CSc1cccc(CN(C)C(=O)Cn2ncc(N3CCCC3)cc2=O)c1")
-3.66
>>> value_observed("Cc1cc(C(=O)N[C@H]2COC[C@@H]2N2CCOCC2)c2ccc(F)cc2n1")
-8.8
>>> value_observed("Cc1nc(C2CCCN2CCC(=O)N2CCc3ccccc32)no1 (stereo unspecified)")
4.14
>>> value_observed("Cc1noc(C)c1CN1CCO[C@H]2CN(C3CCOCC3)C[C@H]21")
21.3
